These entries and their values trace back to patent US5608095A.

test: HPLC quantitation of compound and metabolite concentration in rat serum and liver; format: in vivo, male Sprague-Dawley rats; conditions: po; rat serum, diet 0.1%, 4 days; read-out: Serum Parent = parent compound concentration

{"Compound": "CN(C)c1ccc([Si](C)(C)COc2cc(C(C)(C)C)c(O)c(C(C)(C)C)c2)cc1 [MDL 104,556]", "concentration at 96 h (ng/mL)": 9200}
{"Compound": "CC(C)(C)c1cc(OC[Si](C)(C)c2ccc(C(F)(F)F)cc2)cc(C(C)(C)C)c1O [MDL 105,975]", "concentration at 96 h (ng/mL)": 23800}

* * *

Let's look at some molecules and their measured concentration at 96 h.
assay: HPLC quantitation of compound and metabolite concentration in rat serum and liver; type: in vivo, male Sprague-Dawley rats; conditions: po; rat liver, diet 0.1%, 4 days; read-out: Liver Parent = parent compound concentration

{"Molecule smiles": "CN(C)c1ccc([Si](C)(C)COc2cc(C(C)(C)C)c(O)c(C(C)(C)C)c2)cc1", "concentration at 96 h, ng/g": 38700}
{"Molecule smiles": "CC(C)(C)c1cc(OC[Si](C)(C)c2ccc(C(F)(F)F)cc2)cc(C(C)(C)C)c1O", "concentration at 96 h, ng/g": 94500}
